- TARGET OR TEST SYSTEM: Cannabinoid receptor 2 (Homo sapiens)
- Sequence (P34972 whole entry): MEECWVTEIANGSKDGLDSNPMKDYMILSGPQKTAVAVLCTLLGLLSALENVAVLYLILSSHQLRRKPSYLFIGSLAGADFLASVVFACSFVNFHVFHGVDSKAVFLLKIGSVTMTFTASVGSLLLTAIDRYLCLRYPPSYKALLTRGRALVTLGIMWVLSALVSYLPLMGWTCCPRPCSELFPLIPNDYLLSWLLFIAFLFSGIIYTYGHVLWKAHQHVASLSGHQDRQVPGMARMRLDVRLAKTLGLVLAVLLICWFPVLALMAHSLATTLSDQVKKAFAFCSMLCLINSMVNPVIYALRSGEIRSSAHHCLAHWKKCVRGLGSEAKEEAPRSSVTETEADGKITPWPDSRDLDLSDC
- TEST SUMMARY: Displacement of [3H]CP-55940 from human recombinant CB2 receptor expressed in HEK cells
- Format: cell-based, HEK293
- RUN PARAMETERS: read-out: Ki
MEASURED ENDPOINT: Ki (nM)

CC1(C)C(C(=O)c2cn(CCN3CCOCC3)c3cccc([N+](=O)[O-])c23)C1(C)C : 297
CC1(C)C(C(=O)c2cn(CC3CCOCC3)c3ccc(F)cc23)C1(C)C : 1.6
COc1ccc2c(c1)c(C(=O)C1C(C)(C)C1(C)C)cn2CC1CCOCC1 : 4.6
CC1(C)C(C(=O)c2cn(CC3CCOCC3)c3cc(C(F)(F)F)ccc23)C1(C)C : 3.5
COC(=O)c1ccc2c(C(=O)C3C(C)(C)C3(C)C)cn(CC3CCOCC3)c2c1 : 1.4
CC1(C)C(C(=O)c2cn(CC3CCOCC3)c3cc(O)ccc23)C1(C)C : 8.5
CC1(C)C(C(=O)c2cn(CCN3CCOCC3)c3cccc(N)c23)C1(C)C : 32
CC1(C)C(C(=O)c2cn(CC3CCOCC3)c3ccc(OCc4ccccc4)cc23)C1(C)C : 1.3
CC1(C)C(C(=O)c2cn(CC3CCOCC3)c3cccc(O)c23)C1(C)C : 3.9
COc1cccc2c(C(=O)C3C(C)(C)C3(C)C)cn(CC3CCOCC3)c12 : 0.12
CC1(C)C(C(=O)c2cn(CC3CCOCC3)c3cc(CN)ccc23)C1(C)C : 62
CC1(C)C(C(=O)c2cn(CC3CCOCC3)c3ccc(Cl)cc23)C1(C)C : 3
COc1ccc2c(C(=O)C3C(C)(C)C3(C)C)cn(CC3CCOCC3)c2c1 : 0.51
CC1(C)C(C(=O)c2cn(CC3CCOCC3)c3cccc(OCc4ccccc4)c23)C1(C)C : 9.3
COC(=O)c1ccc2c(c1)c(C(=O)C1C(C)(C)C1(C)C)cn2CC1CCOCC1 : 238
COc1cccc2c1c(C(=O)C1C(C)(C)C1(C)C)cn2CC1CCOCC1 : 3.3
CC1(C)C(C(=O)c2cn(CCN3CCOCC3)c3ccc(O)cc23)C1(C)C : 92
CC1(C)C(C(=O)c2cn(CC3CCOCC3)c3ccc(N)cc23)C1(C)C : 9.3
CC1(C)C(C(=O)c2cn(CC3CCOCC3)c3cc(-c4ccccc4)ccc23)C1(C)C : 0.41

The measurements presented in this section are drawn from ChEMBL document CHEMBL1144013.
